target: GSK-3β (amino acids 1-420) (Homo sapiens, UniProt P49841); construct: hexa-histidine tag with thrombin cleavage site (N); assay: Ki determination for the inhibition of GSK-3 (standard coupled enzyme system); conditions: 20 μM ATP, 300 μM peptide, 20 nM GSK-3β, 30° C.; read-out: Ki (GSK-3 inhibitory activity)
Sequence (P49841 whole entry, the tested form may be a part): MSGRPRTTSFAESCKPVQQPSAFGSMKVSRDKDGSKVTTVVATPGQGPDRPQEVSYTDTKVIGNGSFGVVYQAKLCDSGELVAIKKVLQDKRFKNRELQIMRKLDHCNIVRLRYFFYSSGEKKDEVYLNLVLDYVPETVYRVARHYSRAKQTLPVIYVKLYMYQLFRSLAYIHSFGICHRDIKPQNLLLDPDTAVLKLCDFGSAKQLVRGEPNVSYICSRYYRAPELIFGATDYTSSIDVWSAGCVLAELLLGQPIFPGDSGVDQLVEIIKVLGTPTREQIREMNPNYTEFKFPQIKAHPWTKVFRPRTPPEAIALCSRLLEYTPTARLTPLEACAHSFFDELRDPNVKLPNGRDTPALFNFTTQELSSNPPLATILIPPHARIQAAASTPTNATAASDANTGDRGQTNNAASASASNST
pKi: −log10 of the molar value.

# smiles.record, subject.of.test, pKi
records = [
    ("Nc1n[nH]c2nnc(-c3ccccc3)c(-c3ccc(F)cc3)c12", "GSK-3β (amino acids 1-420) (Homo sapiens, UniProt P49841)", "> 7.00"),
    ("Nc1n[nH]c2nnc(-c3cccc(F)c3)c(-c3ccccc3)c12", "GSK-3β (amino acids 1-420) (Homo sapiens, UniProt P49841)", "> 7.00"),
    ("Nc1n[nH]c2nnc(-c3ccncc3)c(-c3ccccc3)c12", "GSK-3β (amino acids 1-420) (Homo sapiens, UniProt P49841)", "< 5.00"),
    ("Nc1n[nH]c2nnc(-c3ccc(F)cc3)c(-c3ccccc3)c12", "GSK-3β (amino acids 1-420) (Homo sapiens, UniProt P49841)", "< 5.00"),
    ("O=C(Nc1n[nH]c2nnc(-c3ccccc3)c(-c3ccccc3)c12)c1ccccc1", "GSK-3β (amino acids 1-420) (Homo sapiens, UniProt P49841)", "5.00 to 7.00"),
]

* * *

# pKi listing for each entry below
molecular target: GSK-3β (amino acids 1-420) (Homo sapiens, UniProt P49841); construct: hexa-histidine tag with thrombin cleavage site (N); test: Ki determination for the inhibition of GSK-3 (standard coupled enzyme system); conditions: 20 μM ATP, 300 μM peptide, 20 nM GSK-3β, 30° C.; read-out: Ki (GSK-3 inhibitory activity)
pKi: −log10 of the molar value.
property.name: pKi

# smiles.record, property.name, experimental.value
data = [
    ("Nc1n[nH]c2nnc(-c3ccccc3F)c(-c3ccccc3)c12", "pKi", "> 7.00"),
    ("Nc1n[nH]c2nnc(-c3ccc(Cl)cc3)c(-c3ccccc3)c12", "pKi", "5.00 to 7.00"),
    ("Nc1n[nH]c2nnc(-c3ccccc3)c(-c3ccc(Cl)cc3)c12", "pKi", "< 5.00"),
    ("Nc1n[nH]c2nncc(-c3ccccc3)c12", "pKi", "5.00 to 7.00"),
    ("Cc1cccc(-c2nnc3[nH]nc(N)c3c2-c2ccccc2)c1", "pKi", "5.00 to 7.00"),
    ("Cc1ccccc1-c1nnc2[nH]nc(N)c2c1-c1ccccc1", "pKi", "5.00 to 7.00"),
    ("Nc1n[nH]c2nnc(-c3ccc(F)cc3)c(-c3ccc(F)cc3)c12", "pKi", "5.00 to 7.00"),
    ("CC(=O)Nc1n[nH]c2nnc(-c3ccccc3)c(-c3ccccc3)c12", "pKi", "5.00 to 7.00"),
    ("Cc1ccc(-c2nnc3[nH]nc(N)c3c2-c2ccccc2)cc1", "pKi", "> 7.00"),
    ("Nc1n[nH]c2nnc(-c3ccccc3Cl)c(-c3ccccc3)c12", "pKi", "> 7.00"),
    ("Nc1n[nH]c2nnc(-c3ccccc3)c(-c3cccc(F)c3)c12", "pKi", "> 7.00"),
]
